test: chemical genetic growth profiling, strain panel (AID 1159580);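 further: tested at 20 µM; growth read once vehicle control cultures reached saturation at 30 °C; 1 = growth at the plate median or of vehicle wells; lower values mean less growth of the strain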
study.conditions: S. cerevisiae deletion strains, growth OD, locus YJL095W, strain BCK1, hits give low values
Hit rate of the full screen: of about 5,500 compounds, about 2,000 (36%) were called active. Roughly 18% stayed inconclusive and do not appear here. The list shows a part of the results.
assay.metric: normalized growth
Answers are plain numbers.

# example entries with known answers
C/C(=N/Nc1nc(C(C)(C)C)cs1)c1ccc(Cl)c(Cl)c1 :: 0.839
Fc1ccc(N/N=C\Cc2nnnn2-c2ccccc2)c(F)c1 :: 0.16
Nc1ccc(C(=O)O)c(O)c1 (tested in a mixture with another compound) :: 1.02
C[N+]12CC[C@@]34c5ccccc5N5C(=O)CC6OCC=C(C1)[C@H](CC32)[C@@H]6C54 (stereo not given in full) :: 0.99
Nc1nnc(-c2cccc(Cl)c2Cl)c(N)n1 :: 0.997

Go through the items and report each one's normalized growth.
1. CC(C)(C)c1cc2nc(C(F)(F)F)cc(NNC(=O)c3ccc(Cl)cc3)n2n1
2. Clc1ccccc1N/N=C\Cc1nnnn1-c1ccccc1
3. CC(C)(C)c1csc(NC(=O)Nc2ccc(Cl)cc2)n1
4. COC(=O)C1=C(C)NC(C)=C(C(=O)OCC(C)C)C1c1ccccc1[N+](=O)[O-] (stereo not given)
5. CC(=O)OCC(=O)[C@H]1CCC2C3CC=C4C[C@@H](O)CC[C@]4(C)C3CC[C@@]21C (stereo not given in full)

[0.991, 0.716, 0.345, 0.35, 0.956]

* * *

test: chemical genetic growth profiling, strain panel (AID 1159580)
study.conditions: S. cerevisiae deletion strains, growth OD, locus YEL061C, strain CIN8 (second series), hits give low values
About 2,000 (36%) of roughly 5,500 compounds were called active. Roughly 18% stayed inconclusive and do not appear here. This is one part of the list.
assay.metric: normalized growth
One number for each entry.

# example entries with known answers
COc1ccc(-c2cc(=O)c3cc(OC)ccc3o2)cc1 :: 0.93
CC(C)(O)[C@@H]1CC[C@](C)([C@H]2[C@@H](O)C[C@@]3(C)C4C[C@H](O[C@@H]5O[C@H](CO)[C@@H](O)[C@H](O)[C@H]5O)C5C(C)(C)[C@@H](O[C@@H]6OC[C@@H](O)[C@H](O)[C@H]6O)CC[C@@]56C[C@@]46CC[C@]23C)O1 (stereo partly drawn) :: 0.985
NS(=O)(=O)c1cc2c(cc1C(F)(F)F)NCNS2(=O)=O :: 1.01

Go through the items and report each one's normalized growth.
1. CC(=O)O[C@@H]1CC2C(C)(C)[C@H](O)C[C@H](O)[C@]2(C)C2CC[C@@]3(C)[C@H](c4ccoc4)OC(=O)[C@H]4O[C@]43[C@@]21C (stereo partly drawn)
2. CC(=O)O[C@H]1C[C@H](O[C@H]2[C@@H](O)C[C@H](O[C@H]3[C@@H](O)C[C@H](O[C@H]4CC[C@@]5(C)C(CCC6C5C[C@@H](O)[C@]5(C)[C@@H](C7=CC(=O)OC7)CC[C@]65O)C4)O[C@@H]3C)O[C@@H]2C)O[C@H](C)[C@H]1O[C@@H]1O[C@H](CO)[C@@H](O)[C@H](O)[C@H]1O (stereo partly drawn)
3. NC(=O)CC[C@@H](N)C(=O)O
4. CC1(C)O[C@@H]2CC3C4C[C@H](F)C5=CC(=O)C=C[C@]5(C)[C@@]4(F)[C@@H](O)C[C@]3(C)[C@]2(C(=O)CO)O1 (stereo partly drawn)
5. COc1ccc(-c2cc(=O)c3c(O)c(OC)c(OC)c(OC)c3o2)cc1
6. CC(=O)N(O)CCCCCNC(=O)CCC(=O)N(O)CCCCCNC(=O)CCC(=O)N(O)CCCCCN
7. C/C(=C\C(=O)OCCCCCCCCC(=O)O)C[C@@H]1OC[C@H](C[C@@H]2O[C@H]2[C@@H](C)[C@H](C)O)[C@@H](O)[C@H]1O
8. CC[C@]12C=CCN3CC[C@@]4(c5ccc(OC)cc5N(C)C4[C@@](O)(C(=O)OC)[C@@H]1OC(C)=O)[C@@H]32 (stereo partly drawn)

[0.977, 0.99, 1.02, 1.02, 0.998, 1.01, 0.967, 1.02]

Go through the items and report each one's normalized growth.
1. C[C@@H]1CC[C@@]2(OC1)OC1C(O)C3C4CC[C@H]5C[C@H](O[C@@H]6O[C@H](CO)[C@H](O[C@@H]7O[C@H](CO)[C@@H](O)[C@H](O[C@@H]8OC[C@@H](O)[C@H](O)[C@H]8O)[C@H]7O[C@@H]7O[C@H](CO)[C@H](O)[C@H](O[C@@H]8O[C@H](CO)[C@@H](O)[C@H](O)[C@H]8O)[C@H]7O)[C@H](O)[C@H]6O)[C@H](O)C[C@]5(C)C4CC[C@]3(C)C1[C@@H]2C (stereo partly drawn)
2. C[N+]1(CCCCC[N+]2(C)CCCC2)CCCC1

[0.999, 0.991]

* * *

test: chemical genetic growth profiling, strain panel (AID 1159580);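 further: tested at 20 µM; growth read once vehicle control cultures reached saturation at 30 °C; 1 = growth at the plate median or of vehicle wells; lower values mean less growth of the strain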
study.conditions: S. cerevisiae deletion strains, growth OD, locus YNL307C, strain MCK1
The whole screen tested about 5,500 compounds, of which about 2,000 (36%) were called active. Inconclusive results (about 18%) are left out. Cut-off read from the data, not from the text of the source: active = normalized growth mostly below about 0.91 (no sharp cut-off); inconclusive = no clear call, values can overlap the other calls; inactive = mostly above about 0.92. This is one part of the list.
Pick one and only one: active, inactive

CCN(CC)CCNc1ccc(CO)c2sc3ccccc3c(=O)c12 :: inactive
Cc1cc2cc3c(C)cc(=O)oc3c(C)c2o1 :: active
Nc1ccc(C(=O)O)c(O)c1 (tested in a mixture with another compound) :: inactive
COc1cc2cc[n+]3cc4c(OC)c(OC)ccc4cc3c2cc1OC :: inactive

Status in this test for "O=C1c2c(O)ccc(O)c2C(=O)c2c(NCCNCCO)ccc(NCCNCCO)c21" ? inactive

Status in this test for C#CCOS(=O)OC1CCCCC1Oc1ccc(C(C)(C)C)cc1 (configuration not stated) ? inactive

Status in this test for Cn1nnnc1SCC1=C(C(=O)O)N2C(=O)C(NC(=O)C(O)c3ccccc3)C2SC1 (configuration not stated) ? inactive

Status in this test for "COc1ccc2cc3[n+](cc2c1OC)CCc1cc2c(cc1-3)OCO2" ? active

Status in this test for "C[n+]1cc2c3c(ccc2c2ccc4cc5c(cc4c21)OCO5)OCO3" ? active

Status in this test for "CC(=O)Nc1cccc(O)c1" ? inactive

Status in this test for "Nc1ccc(C(=O)O)c(O)c1" ? inactive

Status in this test for CCOC(=O)C1C(C=C(C)C)C1(C)C (configuration not stated) ? inactive

* * *

test: chemical genetic growth profiling, strain panel (AID 1159580);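 further: tested at 20 µM; growth read once vehicle control cultures reached saturation at 30 °C; 1 = growth at the plate median or of vehicle wells; lower values mean less growth of the strain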
study.conditions: S. cerevisiae deletion strains, growth OD, locus YKL085W, strain MDH1, hits give low values
Screen size: about 5,500 compounds; about 2,000 (36%) were called active. Roughly 18% stayed inconclusive and do not appear here. The list shows a part of the results.
Exam item: assign label 1 to entries whose normalized growth is below 1 and label 0 to entries at or above 1. Note that a value of exactly 1 receives label 0.

CC1=CCc2c(cc3oc(C)cc(=O)c3c2O)OC1 :: label 1
COc1ccc(-c2coc3cc(O)cc(O)c3c2=O)cc1 :: label 1
COc1ccc(-c2cc(=O)c3c(OC(C)=O)cc(OC(C)=O)cc3o2)cc1 :: label 1
CC1=C2C(=CO[C@H](C)[C@H]2C)C(=O)C(C(=O)O)=C1O :: label 1
O=c1c2ccccc2[se]n1-c1ccccc1 :: label 1

Could you now consider this next compound?
State whether 1 exceeds normalized growth recorded for "N[C@@H]1CONC1=O" . label 0

* * *

test: chemical genetic growth profiling, strain panel (AID 1159580);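 further: tested at 20 µM; growth read once vehicle control cultures reached saturation at 30 °C; 1 = growth at the plate median or of vehicle wells; lower values mean less growth of the strain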
study.conditions: S. cerevisiae deletion strains, growth OD, locus YJL168C, strain set2, hits give low values
Out of some 5,500 compounds screened, about 2,000 (36%) were called active. Another 18% or so got no clear call; they are omitted. The list shows a part of the results.
Exam item: assign Met to entries whose normalized growth is below 1 and Not met to entries at or above 1. Note that a value of exactly 1 receives Not met.

Worked set:
COc1ccc2cc3[n+](cc2c1OC)CCc1cc2c(cc1-3)OCO2 :: Met
Nc1ccc(C(=O)Oc2ccccc2)c(O)c1 :: Met
CC(=O)[C@H]1CCC2C3CC=C4C[C@@H](O)CC[C@]4(C)C3CC[C@@]21C (stereo not given in full) :: Not met
COc1ccc(C(=O)/C=C/c2ccccc2)cc1 :: Met
O=c1c2ccccc2oc2ccc(O)cc12 :: Met

State whether 1 exceeds normalized growth recorded for "COc1ccc(-c2coc3cc(O)cc(O)c3c2=O)cc1" . Met

State whether 1 exceeds normalized growth recorded for "CC(C)=CCc1c2c(c(O)c3c(=O)c(O)c(-c4ccccc4)oc13)C=CC(C)(C)O2" . Met

State whether 1 exceeds normalized growth recorded for "O=C(/C=C/c1ccccc1)c1ccc(O)cc1" . Met

State whether 1 exceeds normalized growth recorded for "C[n+]1cc2c3c(ccc2c2ccc4cc5c(cc4c21)OCO5)OCO3" . Met

State whether 1 exceeds normalized growth recorded for CSc1ccc2c(c1)C(N1CCN(C)CC1)Cc1ccccc1S2 (stereo not given) . Met

State whether 1 exceeds normalized growth recorded for "Cc1coc2ccccc2c1=O" . Not met
